Data credit: ChEMBL document CHEMBL3603773

target: Cholinesterases; ACHE & BCHE (Homo sapiens) (UniProt P06276+P22303); experiment: Selectivity ratio of IC50 for AChE (unknown origin) to IC50 for BChE (unknown origin)
Sequence (P22303 whole entry, looked up, one chain of several): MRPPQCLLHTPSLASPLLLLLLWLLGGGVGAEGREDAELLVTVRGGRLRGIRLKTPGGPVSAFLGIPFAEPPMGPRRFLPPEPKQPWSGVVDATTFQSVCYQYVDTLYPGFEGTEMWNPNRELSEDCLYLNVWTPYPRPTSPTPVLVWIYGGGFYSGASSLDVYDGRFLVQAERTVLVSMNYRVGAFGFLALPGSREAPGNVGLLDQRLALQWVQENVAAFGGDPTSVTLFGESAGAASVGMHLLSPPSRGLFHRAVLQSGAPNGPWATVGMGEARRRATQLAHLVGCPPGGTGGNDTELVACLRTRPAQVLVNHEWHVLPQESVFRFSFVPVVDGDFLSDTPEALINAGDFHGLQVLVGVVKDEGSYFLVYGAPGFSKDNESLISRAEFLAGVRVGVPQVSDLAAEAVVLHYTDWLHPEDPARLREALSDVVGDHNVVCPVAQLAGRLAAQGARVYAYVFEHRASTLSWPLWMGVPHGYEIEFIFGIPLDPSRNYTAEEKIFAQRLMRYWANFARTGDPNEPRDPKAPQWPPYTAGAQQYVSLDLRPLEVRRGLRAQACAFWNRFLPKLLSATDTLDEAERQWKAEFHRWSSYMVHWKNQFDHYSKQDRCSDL

| structure | Ratio IC50 |
| --- | --- |
| CN(C)CCC[C@@]1(c2ccc(F)cc2)OCc2cc(-c3nnc(-c4cccc(O)c4)[nH]3)ccc21 | < 4.22 |
| CN(C)CCC[C@@]1(c2ccc(F)cc2)OCc2cc(-c3nnc(-c4cccc(Br)c4)[nH]3)ccc21 | < 6.41 |
| CN(C)CCC[C@@]1(c2ccc(F)cc2)OCc2cc(-c3nnc(-c4ccccc4)[nH]3)ccc21 | > 3.88 |
| CN(C)CCC[C@@]1(c2ccc(F)cc2)OCc2cc(-c3nnc(-c4ccc(I)cc4)[nH]3)ccc21 | > 3.11 |
| CN(C)CCC[C@@]1(c2ccc(F)cc2)OCc2cc(-c3nnc(-c4cccc(N)c4)[nH]3)ccc21 | > 2.67 |
| COc1cc(-c2nnc(-c3ccc4c(c3)CO[C@@]4(CCCN(C)C)c3ccc(F)cc3)[nH]2)ccc1O | < 20.8 |

---

molecular target: Cholinesterase (Homo sapiens); assay: Inhibition of BChE (unknown origin) using butyrylthiocholine chloride as substrate at 0.5 mM preincubated for 30 mins before substrate addition measured after 30 mins by Ellman method relative to control
Sequence (P06276 whole entry): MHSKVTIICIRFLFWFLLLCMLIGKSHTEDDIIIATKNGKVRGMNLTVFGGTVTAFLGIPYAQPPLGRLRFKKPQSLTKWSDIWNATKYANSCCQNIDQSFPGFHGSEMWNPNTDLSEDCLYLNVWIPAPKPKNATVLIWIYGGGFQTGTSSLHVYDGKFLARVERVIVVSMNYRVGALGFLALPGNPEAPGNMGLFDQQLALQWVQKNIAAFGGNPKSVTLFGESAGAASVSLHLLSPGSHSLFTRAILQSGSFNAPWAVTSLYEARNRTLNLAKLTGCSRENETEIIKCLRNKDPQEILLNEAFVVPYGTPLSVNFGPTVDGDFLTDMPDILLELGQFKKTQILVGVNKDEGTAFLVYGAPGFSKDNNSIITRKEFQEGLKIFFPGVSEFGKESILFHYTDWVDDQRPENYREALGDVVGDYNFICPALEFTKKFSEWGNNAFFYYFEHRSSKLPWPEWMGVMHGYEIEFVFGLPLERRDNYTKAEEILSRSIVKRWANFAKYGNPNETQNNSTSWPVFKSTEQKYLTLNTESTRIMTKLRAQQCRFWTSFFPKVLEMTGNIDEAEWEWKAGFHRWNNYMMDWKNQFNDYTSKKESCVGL
Mark Satisfied for reported inhibition of 80% or greater; mark Not satisfied for anything smaller.

| structure | category |
| --- | --- |
| CN(C)CCC[C@@]1(c2ccc(F)cc2)OCc2cc(-c3nnc(-c4cccc(I)c4)[nH]3)ccc21 | Not satisfied |
| CN(C)CCC[C@@]1(c2ccc(F)cc2)OCc2cc(-c3nnc(-c4ccc(I)cc4)[nH]3)ccc21 | Satisfied |
| Cc1cccc(-c2nnc(-c3ccc4c(c3)CO[C@@]4(CCCN(C)C)c3ccc(F)cc3)[nH]2)c1 | Not satisfied |
| COc1cc(-c2nnc(-c3ccc4c(c3)CO[C@@]4(CCCN(C)C)c3ccc(F)cc3)[nH]2)ccc1O | Satisfied |
| Cc1ccccc1-c1nnc(-c2ccc3c(c2)CO[C@@]3(CCCN(C)C)c2ccc(F)cc2)[nH]1 | Satisfied |
| CN(C)CCC[C@@]1(c2ccc(F)cc2)OCc2cc(-c3nnc(-c4ccc(N)cc4)[nH]3)ccc21 | Not satisfied |
| CN(C)CCC[C@@]1(c2ccc(F)cc2)OCc2cc(-c3nnc(-c4cccc(N)c4)[nH]3)ccc21 | Not satisfied |
| CN(C)CCC[C@@]1(c2ccc(F)cc2)OCc2cc(-c3nnc(-c4cccc(F)c4)[nH]3)ccc21 | Satisfied |

---

Form field: pIC50 (one value per entry).
molecular target: Cholinesterase (Homo sapiens)
pIC50: −log10 of the molar value.
recordedMetric: pIC50

| structure | systemUnderTest | quantitativeReadout |
| --- | --- | --- |
| CN(C)CCC[C@@]1(c2ccc(F)cc2)OCc2cc(-c3nnc(-c4cccc(Br)c4)[nH]3)ccc21 | Cholinesterase (Homo sapiens) | 4.11 |
| CN(C)CCC[C@@]1(c2ccc(F)cc2)OCc2cc(-c3nnc(-c4cccc([N+](=O)[O-])c4)[nH]3)ccc21 | Cholinesterase (Homo sapiens) | 3.98 |
| CN(C)CCC[C@@]1(c2ccc(F)cc2)OCc2cc(-c3nnc(-c4cccc(F)c4)[nH]3)ccc21 | Cholinesterase (Homo sapiens) | 4.35 |
| COc1cccc(-c2nnc(-c3ccc4c(c3)CO[C@@]4(CCCN(C)C)c3ccc(F)cc3)[nH]2)c1 | Cholinesterase (Homo sapiens) | 3.99 |
| CN(C)CCC[C@@]1(c2ccc(F)cc2)OCc2cc(-c3nnc(-c4ccc(Br)cc4)[nH]3)ccc21 | Cholinesterase (Homo sapiens) | 3.31 |
| COc1ccc(-c2nnc(-c3ccc4c(c3)CO[C@@]4(CCCN(C)C)c3ccc(F)cc3)[nH]2)cc1 | Cholinesterase (Homo sapiens) | 3.78 |
| CN(C)CCC[C@@]1(c2ccc(F)cc2)OCc2cc(-c3nnc(-c4ccccc4I)[nH]3)ccc21 | Cholinesterase (Homo sapiens) | 4.59 |
| CN(C)CCC[C@@]1(c2ccc(F)cc2)OCc2cc(-c3nnc(-c4ccc(F)cc4)[nH]3)ccc21 | Cholinesterase (Homo sapiens) | 5.27 |
| COc1cc(-c2nnc(-c3ccc4c(c3)CO[C@@]4(CCCN(C)C)c3ccc(F)cc3)[nH]2)ccc1O | Cholinesterase (Homo sapiens) | 4.62 |
| CN(C)CCC[C@@]1(c2ccc(F)cc2)OCc2cc(-c3nnc(-c4ccccc4F)[nH]3)ccc21 | Cholinesterase (Homo sapiens) | 5.34 |
| CN(C)CCC[C@@]1(c2ccc(F)cc2)OCc2cc(-c3nnc(-c4ccc(I)cc4)[nH]3)ccc21 | Cholinesterase (Homo sapiens) | 3.79 |
| CN(C)CCC[C@@]1(c2ccc(F)cc2)OCc2cc(-c3nnc(-c4ccccc4O)[nH]3)ccc21 | Cholinesterase (Homo sapiens) | 3.99 |
| CN(C)CCC[C@@]1(c2ccc(F)cc2)OCc2cc(-c3nnc(-c4cccc(Cl)c4)[nH]3)ccc21 | Cholinesterase (Homo sapiens) | 4.58 |
| CN(C)CCC[C@@]1(c2ccc(F)cc2)OCc2cc(-c3nnc(-c4ccc([N+](=O)[O-])cc4)[nH]3)ccc21 | Cholinesterase (Homo sapiens) | 3.97 |
